assay: Toxicity liver stage against HepG2, at 10uM; assay type: cell-based; set-up: test concentration 10 uM, cell line HepG2-A16-CD81EGFP; settings: human, HepG2-A16-CD81EGFP cells; read-out: INHIBITION
Measured cytotoxicity at 10 µM values are reported for all entries that follow.
Give the number; % is assumed, so skip it.

CC(NC(=O)C1CCN(C(C)C)CC1)c1nncn1C1CCCC1 (configuration not stated) :: -6.93
Cc1ccccc1C(C)NC(=O)CSCC#N (configuration not stated) :: -10.2
Cc1n[nH]c(C)c1-c1nccnc1CC1CCN(S(C)(=O)=O)C1 (configuration not stated) :: -10.4
O=c1cc(Cn2ccnc2)nc2n1CCCN(CC1CCOCC1)C2 :: 12.7
CCN(CC)c1ncc(CNC2CCc3ncnn3C2)s1 (configuration not stated) :: -1.06

// cytotoxicity at 10 µM lookup, molecule = Cc1cc(C(=O)N2C[C@@H]3COC[C@]3(CN(C)C)C2)c(C)o1 , result: -131

// cytotoxicity at 10 µM lookup, molecule = CSc1ccc(CCNC(=O)Cc2c(C)n[nH]c2C)cc1 , result: 1.02

// cytotoxicity at 10 µM lookup, molecule = CC(C)OCc1ncn2c1CN(Cc1ccc(F)cc1)CCC2 , result: 1.39

// cytotoxicity at 10 µM lookup, molecule = CN1CCCCC[C@@H]2[C@@H]1[C@H](c1ccccc1)CN2C(=O)c1ccccn1 , result: -24.5

----------
assay: Toxicity liver stage against HepG2, at 10uM; assay type: cell-based; parameters: test concentration 10 uM, cell line HepG2-A16-CD81EGFP; details: human, HepG2-A16-CD81EGFP cells; read-out: INHIBITION
measurement label: cytotoxicity at 10 µM
Give the figure together with its unit, number first.

Some entries whose results are on file:
CCn1cc(C(=O)NCC(OC)c2cccc(Cl)c2)cn1 (centres undefined) :: -8.87%
CCCN1CCc2nc(N3CCOCC3)nc(NC(C)C)c2C1 :: -111%
COCCc1noc(CN2CCN(c3ccc(OC)cc3)C(=O)C2C)n1 (centres undefined) :: 0.296%
CC(C)CCN1C2(CCN(Cc3nccs3)C2)c2ccccc2S1(=O)=O (centres undefined) :: -65%
Cc1cccc(C(=O)N2C[C@@H](C)[C@@]3(CCN(c4ccsc4)C3=O)C2)n1 :: -78.9%
CCn1ncc2c1C(COC)CN(Cc1ccco1)C2 (centres undefined) :: 7.1%
CN(C)CC1CSCCCN1S(=O)(=O)Cc1cccc(F)c1 (centres undefined) :: -3.63%
CC1(C)CN(C(CNS(N)(=O)=O)c2ccc(Cl)cc2)CCO1 (centres undefined) :: 6.88%
O=C(c1ccc(COc2ccccc2Cl)o1)N1N=CCC1(O)C(F)(F)F (centres undefined) :: 14.5%
CNS(=O)(=O)c1ccc(CN2CCN(Cc3ncccc3C)CC2)cc1 :: 8.41%

// cytotoxicity at 10 µM lookup, compound = Cc1cc(C)c(CCNC(=O)NCCCC(N)=O)c(C)c1 , result: -1.24%

// cytotoxicity at 10 µM lookup, compound = Cn1cc(C2CCCN2C(=O)CCn2ccc3ccccc32)cn1 (centres undefined) , result: 8.84%

// cytotoxicity at 10 µM lookup, compound = CCC1CN(c2cnn(C)c(=O)c2Cl)CCO1 (centres undefined) , result: -1.26%

// cytotoxicity at 10 µM lookup, compound = COc1ccccc1CN1C(=O)O[C@@H]2CN(c3ccccn3)C[C@@H]21 , result: 5.97%

Cited source for all entries: ChEMBL document CHEMBL4513216
